Test system: DU-145
Test: Cytotoxicity against human DU145 cells after 48 hrs by SRB assay
Type: functional, cell-based
Conditions: Homo sapiens, DU-145, 48 h; read-out: LC50 (the source's name)
Observed property: CC50 (nM)
Report as a plain number; the unit nM is understood.

Problem: Sample `C/C=C1\NC(=O)[C@H](Cc2ccccc2)NC(=O)[C@@H](C(C)C)NC(=O)[C@@H]([C@H](C)CC)NC(=O)[C@H](NC(=O)[C@H](NC(=O)[C@H](CCCN)NC(=O)[C@H]2CCCN2C(=O)[C@H](NC(=O)CNC(=O)[C@@H](NC(=O)[C@H](NC(=O)CCCC(C)C)C(C)C)[C@@H](C)O)C(C)C)[C@H](C)CC)[C@H](C)OC(=O)[C@H](C(C)C)NC1=O` — what was its CC50?
Result: 1700

Problem: And for `C/C=C1\NC(=O)[C@H](Cc2ccc([N+](=O)[O-])cc2)NC(=O)[C@@H](C(C)C)NC(=O)[C@@H]([C@H](C)CC)NC(=O)[C@H](NC(=O)[C@H](NC(=O)[C@H](CCCN)NC(=O)[C@H]2CCCN2C(=O)[C@H](NC(=O)[C@@H](NC(=O)[C@@H](NC(=O)[C@H](NC(=O)CC[C@@H](C)CC)C(C)C)[C@@H](C)O)C(C)C)C(C)C)[C@H](C)CC)[C@H](C)OC(=O)[C@H](C(C)C)NC1=O` ?
Result: 561

Problem: Would you kindly repeat that for `C/C=C1\NC(=O)[C@@H](Cc2ccccc2)NC(=O)[C@H](C(C)C)NC(=O)[C@H]([C@H](C)CC)NC(=O)[C@@H](NC(=O)[C@@H](NC(=O)[C@@H](CCCN)NC(=O)[C@@H]2CCCN2C(=O)[C@@H](NC(=O)[C@H](NC(=O)[C@H](NC(=O)[C@@H](NC(=O)CCCC(C)C)C(C)C)[C@@H](C)O)C(C)C)C(C)C)[C@H](C)CC)[C@H](C)OC(=O)[C@H](C(C)C)NC1=O` ?
Result: 10600

----------
Test system: A549
Experiment: Cytotoxicity against human A549 cells after 48 hrs by SRB assay
Assay type: functional, cell-based
Details: Homo sapiens, A549, 48 h
Rule: LC50 below 2000 nM gives 1 (yes), anything at or above gives 0 (no).

Problem: Is the reported LC50 for `C/C=C1\NC(=O)[C@H](Cc2ccccc2)NC(=O)[C@@H](C(C)C)NC(=O)[C@@H]([C@H](C)CC)NC(=O)[C@H](NC(=O)[C@H](NC(=O)[C@H](NC(=O)CCCC(C)C)C(C)C)[C@H](C)CC)[C@H](C)OC(=O)[C@H](C(C)C)NC1=O` strictly below 2000 nM?
Result: 0 (no)

Problem: Another: `C/C=C1\NC(=O)[C@H](Cc2ccccc2)NC(=O)[C@@H](C(C)C)NC(=O)[C@@H]([C@H](C)CC)NC(=O)[C@H](NC(=O)[C@H](NC(=O)[C@H](CCCN)NC(=O)[C@H]2CCCN2C(=O)[C@H](NC(=O)[C@@H](NC(=O)[C@H](CCC(N)=O)NC(=O)[C@H](NC(=O)CCCC(C)C)C(C)C)C(C)C)C(C)C)[C@H](C)CC)[C@H](C)OC(=O)[C@H](C(C)C)NC1=O`
Result: 1 (yes)

Problem: # repeat for `C/C=C1\NC(=O)[C@H](Cc2ccccc2)NC(=O)[C@@H](C(C)C)NC(=O)[C@@H]([C@H](C)CC)NC(=O)[C@H](NC(=O)[C@H](NC(=O)[C@H](CCCN)NC(=O)[C@H]2CCCN2C(=O)[C@H](NC(=O)[C@@H](NC(=O)[C@@H](NC(=O)[C@H](NC(=O)c2ccc(C(F)(F)F)cc2)C(C)C)[C@@H](C)O)C(C)C)C(C)C)[C@H](C)CC)[C@H](C)OC(=O)[C@H](C(C)C)NC1=O`
Result: 1 (yes)

Problem: Next up: `C/C=C1\NC(=O)[C@H](Cc2ccccc2)NC(=O)[C@@H](C(C)C)NC(=O)[C@@H]([C@H](C)CC)NC(=O)[C@H](NC(=O)[C@H](NC(=O)[C@H](CCCN)NC(=O)[C@@H]2CCCN2C(=O)[C@H](NC(=O)[C@@H](NC(=O)[C@@H](NC(=O)[C@H](NC(=O)CC[C@@H](C)CC)C(C)C)[C@@H](C)O)C(C)C)C(C)C)[C@H](C)CC)[C@H](C)OC(=O)[C@H](C(C)C)NC1=O`
Result: 0 (no)

Problem: Now the same for `C/C=C1\NC(=O)[C@H](Cc2ccccc2)NC(=O)[C@@H](C(C)C)NC(=O)[C@@H]([C@H](C)CC)NC(=O)[C@H](NC(=O)[C@H](NC(=O)[C@H](CCCNC(=O)CCOCCOCCN)NC(=O)[C@H]2CCCN2C(=O)[C@H](NC(=O)[C@@H](NC(=O)[C@@H](NC(=O)[C@H](NC(=O)CCCC(C)C)C(C)C)[C@@H](C)O)C(C)C)C(C)C)[C@H](C)CC)[C@H](C)OC(=O)[C@H](C(C)C)NC1=O`
Result: 1 (yes)

Problem: Next compound up: `C/C=C1\NC(=O)[C@H](Cc2ccc(-c3ccccc3)cc2)NC(=O)[C@@H](C(C)C)NC(=O)[C@@H]([C@H](C)CC)NC(=O)[C@H](NC(=O)[C@H](NC(=O)[C@H](CCCN)NC(=O)[C@H]2CCCN2C(=O)[C@H](NC(=O)[C@@H](NC(=O)[C@@H](NC(=O)[C@H](NC(=O)CCCC(C)C)C(C)C)[C@@H](C)O)C(C)C)C(C)C)[C@H](C)CC)[C@H](C)OC(=O)[C@H](C(C)C)NC1=O`
Result: 1 (yes)

Problem: // query: `C/C=C1\NC(=O)[C@H](Cc2ccccc2)NC(=O)[C@@H](C(C)C)NC(=O)[C@@H]([C@H](C)CC)NC(=O)[C@H](NC(=O)[C@H](NC(=O)[C@H](CCCN)NC(=O)[C@H]2CCCN2C(=O)[C@H](NC(=O)[C@H](CC(C)C)NC(=O)[C@@H](NC(=O)[C@H](NC(=O)CCCC(C)C)C(C)C)[C@@H](C)O)C(C)C)[C@H](C)CC)[C@H](C)OC(=O)[C@H](C(C)C)NC1=O`
Result: 1 (yes)

Problem: Same again, this time with `C/C=C1\NC(=O)[C@H](Cc2ccccc2)NC(=O)[C@H](C(C)C)NC(=O)[C@@H]([C@H](C)CC)NC(=O)[C@H](NC(=O)[C@H](NC(=O)[C@H](CCCN)NC(=O)[C@H]2CCCN2C(=O)[C@H](NC(=O)[C@@H](NC(=O)[C@@H](NC(=O)[C@H](NC(=O)CCCC(C)C)C(C)C)[C@@H](C)O)C(C)C)C(C)C)[C@H](C)CC)[C@H](C)OC(=O)[C@H](C(C)C)NC1=O`
Result: 1 (yes)

Problem: Query `C/C=C1\NC(=O)[C@H](Cc2ccccc2)NC(=O)[C@@H](C(C)C)NC(=O)[C@@H]([C@H](C)CC)NC(=O)[C@H](NC(=O)[C@H](NC(=O)[C@H](NC(=O)[C@@H](NC(=O)[C@@H](NC(=O)[C@H](NC(=O)CCCC(C)C)C(C)C)[C@@H](C)O)C(C)C)C(C)C)[C@H](C)CC)[C@H](C)OC(=O)[C@H](C(C)C)NC1=O` next
Result: 0 (no)

Problem: What about `C/C=C1\NC(=O)[C@@H]2C[C@@H]3CCCC[C@@H]3N2C(=O)[C@@H](C(C)C)NC(=O)[C@@H]([C@H](C)CC)NC(=O)[C@H](NC(=O)[C@H](NC(=O)[C@H](CCCN)NC(=O)[C@H]2CCCN2C(=O)[C@H](NC(=O)[C@@H](NC(=O)[C@@H](NC(=O)[C@H](NC(=O)CC[C@@H](C)CC)C(C)C)[C@@H](C)O)C(C)C)C(C)C)[C@H](C)CC)[C@H](C)OC(=O)[C@H](C(C)C)NC1=O` ?
Result: 1 (yes)

----------
Test system: SK-MEL-28
Experiment: Cytotoxicity against human SK-MEL-28 cells
Observed property: IC50 (µM)
Report the value in µM with no unit label.

Problem: Look up IC50 for this molecule: `C/C=C1\NC(=O)[C@H](Cc2ccccc2)NC(=O)[C@@H](C(C)C)NC(=O)[C@@H]([C@H](C)CC)NC(=O)[C@H](NC(=O)[C@H](NC(=O)[C@@H](NC(=O)[C@H](NC(=O)CCCC(C)C)C(C)C)[C@@H](C)O)[C@H](C)CC)[C@H](C)OC(=O)[C@H](C(C)C)NC1=O`
Result: 9.36

Problem: Param item: `C/C=C1\NC(=O)[C@H](Cc2ccccc2)NC(=O)[C@@H](C(C)C)NC(=O)[C@@H]([C@H](C)CC)NC(=O)[C@H](NC(=O)[C@H](NC(=O)[C@@H](NC(=O)[C@@H](NC(=O)[C@H](NC(=O)CCCC(C)C)C(C)C)[C@@H](C)O)C(C)C)[C@H](C)CC)[C@H](C)OC(=O)[C@H](C(C)C)NC1=O`
Result: 4.3

Problem: Also `C/C=C1\NC(=O)[C@H](Cc2ccccc2)NC(=O)[C@@H](C(C)C)NC(=O)[C@@H]([C@H](C)CC)NC(=O)[C@H](NC(=O)[C@H](NC(=O)[C@H](CCCN)NC(=O)[C@H]2CCCN2C(=O)[C@@H](NC(=O)[C@H](NC(=O)[C@@H](NC(=O)[C@H](NC(=O)CCCC(C)C)C(C)C)[C@@H](C)O)C(C)C)C(C)C)[C@H](C)CC)[C@H](C)OC(=O)[C@H](C(C)C)NC1=O` , if possible.
Result: 3.39
